# assayNotes: qHTS Assay for Lipid Storage Modulators in Drosophila S3 Cells
# setupConditions: BODIPY lipid droplet fluorescence, 18-24 h, cells fed with added oleic acid; series mostly up to 46.1 µM
Hit rate of the full screen: of about 320,000 compounds, about 2,100 (0.66%) were called active. Not shown: some 53% with an inconclusive outcome. Calls follow the shape of the dose curve; as a rule, active = well fitted inhibition curve with a large enough effect in the signal ratio, with a control signal flat (not every such curve was filed as active); inconclusive = small, poorly fitted or top-dose-only effect, or effect the other way, or a change in a side signal; inactive = flat fitted curve, though single readings scatter; the % refers to the signal ratio. For the sample, actives were picked, then their nearest neighbours and some compounds at random.
# output must be one of yes = active, no = inactive

// known answers, use as guide
INSERT INTO measurements (compound, category) VALUES
  ('OC(COc1ccc(C2C=CCC2)cc1)CN1CCCCC1 (stereo unspecified)', 'yes'),
  ('COc1cc(OC)cc(C(=O)/C=C2\Sc3ccccc3N2C)c1', 'no'),
  ('CCOc1cccc(/C(O)=C2/C(=O)C(=O)N(CCOC)C2c2ccco2)c1 (stereo unspecified)', 'no'),
  ('COc1ccc(OCC(O)CN2CCCCCC2)cc1 (stereo unspecified)', 'no'),
  ('Cc1ccc(NS(=O)(=O)N(C)C)cc1', 'no');

Req: I'd appreciate the recorded outcome for CN1/C(=C\C(=O)c2cccc([N+](=O)[O-])c2)Sc2ccccc21 from this test.
Resp: yes
